# experimental system: human CCR8 (human, UniProt P51685 1-355)
# experiment notes: cell-based or functional assay
The entries below are paired with their reported hCCL1 (100 nM) residual response in %, Protocol #2, mAb 0.08 µg/mL (0.53 nM).
Output should be the measured figure followed by the unit it is expressed in.

binder="anti-CCR8 mAb 2-4 (antibody, V domains shown) VH: EVQLQQSGPELVKPGASVKISCKTSGYTFTEYTIHWVKQSHGESLEWVGGINPNNGNTRYDQKFKGKATLTIDKSSSPAYMELRSLTSEDSAVYYCARVARSSGSGPYAMDYWGQGTSVTVSS VL: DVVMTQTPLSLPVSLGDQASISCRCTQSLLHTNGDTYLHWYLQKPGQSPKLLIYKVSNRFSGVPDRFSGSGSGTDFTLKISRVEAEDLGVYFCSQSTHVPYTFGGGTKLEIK" meas_value=104%
binder="anti-CCR8 mAb 2-1 (antibody, V domains shown) VH: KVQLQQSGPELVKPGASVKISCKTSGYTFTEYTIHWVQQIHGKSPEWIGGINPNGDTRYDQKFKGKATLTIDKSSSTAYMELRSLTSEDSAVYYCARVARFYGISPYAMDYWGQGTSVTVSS VL: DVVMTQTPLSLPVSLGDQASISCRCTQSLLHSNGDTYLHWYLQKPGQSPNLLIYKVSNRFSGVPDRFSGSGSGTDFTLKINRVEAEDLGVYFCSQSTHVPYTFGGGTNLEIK" meas_value=101%

Ask: Look up hCCL1 (100 nM) residual response in %, Protocol #2, mAb 0.08 µg/mL (0.53 nM) for this binder: humanized anti-CCR8 mAb 2-15 (antibody, human IgG1, kappa, V domains shown, Humanized, human IgG1 / kappa) VH: QVQLQQSGPEVVKPGASVKVSCKTSGYTFTEYTIHWVRQSHGQSLEWVGGINPNNGNTRYDQKFKGRVTITIDKSSSTAYMELRSLTSEDTAVYYCARVARSSGSGPYAMDYWGQGTTVTVSS VL: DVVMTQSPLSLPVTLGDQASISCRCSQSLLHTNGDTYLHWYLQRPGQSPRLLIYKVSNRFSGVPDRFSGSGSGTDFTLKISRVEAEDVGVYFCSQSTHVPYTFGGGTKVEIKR
Reply: 77%
